- Tested on: A549-hACE2 cells
- condition_info: human
Hi! Could you tag entries with CC50 below 40 µM as Met, and those at or above as Not met? Much appreciated.

compound	experimental_target	qualitative_label
CC(C)(C)NC(=O)[C@@H]1C[C@@H]2CCCC[C@@H]2CN1C[C@@H](O)[C@H](Cc1ccccc1)NC(=O)[C@H](CC(N)=O)NC(=O)c1ccc2ccccc2n1 [Saquinavir]	A549-hACE2 cells	Met

Req: For O=C1c2c(O)c(=O)ccn2N([C@@H]2c3ccccc3SCc3c2ccc(F)c3F)[C@@H]2COCCN12 [Baloxavir] , is the recorded CC50 below the cut-off of 40 µM?
Resp: Not met

Req: Given Fc1ccccc1-c1nc2ccn(Cc3ccc(-c4ccc(C(F)(F)F)cc4C(F)(F)F)nn3)cc-2n1 [Tegobuvir] , is recorded CC50 strictly lower than 40 µM?
Resp: Met

Req: Does this compound meet the criterion CC50 < 40 µM? CCC[C@@]1(CCc2ccccc2)CC(O)=C([C@H](CC)c2cccc(NS(=O)(=O)c3ccc(C(F)(F)F)cn3)c2)C(=O)O1 [Tipranavir]
Resp: Met

Req: is_below(CC50, 40 µM) for Cc1c(O)cccc1C(=O)N[C@@H](CSc1ccccc1)[C@H](O)CN1C[C@H]2CCCC[C@H]2C[C@H]1C(=O)NC(C)(C)C [Nelfinavir] ?
Resp: Met
